Where these numbers come from: PubChem BioAssay AID2124

assay: cell-permeable autofluorescent compounds in GFP channel, dose response, artefact control, imaging, high-content imaging (AID 2124); settings: cells, GFP-channel autofluorescence, high-content imaging; cell count; at 10 µM;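 also: cells exposed to compound for 48 hours before fixing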
Records with an inconclusive call do not appear.
Classification field: enter true for cell count values not below 3000 cells, false for values below it.

Item CN(C)c1nc(N)nc(/C(C#N)=C/C2CC3C=CC2C3)n1 (stereo not given) with cell count of 3000 cells or above? false

Item CC(=O)Nc1sc(/C(C#N)=C/c2ccc(Cl)c(Cl)c2)nc1-c1ccc(C)cc1 with cell count of 3000 cells or above? false

Item Cc1ccc(S(=O)(=O)Nc2ccc(=O)n(Cc3ccc(Cl)c(Cl)c3)c2)cc1 with cell count of 3000 cells or above? true

Item Brc1ccc(Oc2nsnc2N2CCOCC2)cc1 with cell count of 3000 cells or above? true

Item O=C(CCN1C(=O)/C(=C/c2cccs2)SC1=S)NNC(=O)c1cccc(O)c1 with cell count of 3000 cells or above? true

Item O=C1S/C(=C\c2ccc(N3CCOCC3)o2)C(=O)N1Cc1c(F)cccc1Cl with cell count of 3000 cells or above? false

Item CC(=O)c1c(N2CCOCC2)[nH]c(-c2ccccc2)nc1=S with cell count of 3000 cells or above? true

Item COc1cc(/C=C(\C#N)c2nc3ccccc3o2)ccc1O with cell count of 3000 cells or above? true

Item N#C/C(=C/c1ccc(-c2ccccc2)o1)c1nc(-c2cccs2)cs1 with cell count of 3000 cells or above? true

Item CCOC(=O)N1CCN(C(=O)NC2CCCCC2)CC1 with cell count of 3000 cells or above? true

Item Cc1cc(C)n(-c2ccc(OCC(=O)O)nn2)n1 with cell count of 3000 cells or above? true

Item CCN(CC)C(=O)c1sc2nc(-c3cccs3)cc(-c3cccs3)c2c1N with cell count of 3000 cells or above? true

Item CCc1cc2c(CN3CCN(CCO)CC3)cc(=O)oc2cc1O with cell count of 3000 cells or above? true

Item Cc1cc(SCCOc2ccccc2)nc(N)n1 with cell count of 3000 cells or above? true

Item CCCN1C(=O)c2cccc3c(N4CCCCC4)ccc(c23)C1=O with cell count of 3000 cells or above? true

Item CCN1/C(=C/c2cc[n+](CCCS(=O)(=O)[O-])c3ccccc23)Sc2ccccc21 with cell count of 3000 cells or above? false

Item CN1CC=C2C(C#N)=C(N)C(C#N)(C#N)C(c3ccncc3)C2C1 (stereo not given) with cell count of 3000 cells or above? false

Item CC(C)N1CC=C2C(C#N)=C(N)C(C#N)(C#N)[C@H](c3ccoc3)[C@H]2C1 with cell count of 3000 cells or above? false

Item COc1ccc(CC(=O)N2CCN(C)CC2)cc1 with cell count of 3000 cells or above? true

Item CCOc1cc(C)c(S(=O)(=O)Nc2ccc3cn[nH]c3c2)cc1C with cell count of 3000 cells or above? false

Item CN1/C(=C\C=C2C(=O)NC(=S)NC2=O)C(C)(C)c2ccccc21 with cell count of 3000 cells or above? false

Item CN(C)c1ccc(C(=O)N/N=C/c2cc(Br)cc(Br)c2O)cc1 with cell count of 3000 cells or above? false

Item CC(=O)Nc1ccc(N=Cc2c(O)c(C(=O)Nc3ccccc3)cc3ccccc23)cc1 with cell count of 3000 cells or above? false

Item CCCCCn1nc(-c2ccccc2)c2nc3ccccc3nc21 with cell count of 3000 cells or above? true

Item COCCN(CCOC)Cc1cc(=O)oc2cc3c(cc12)CCC3 with cell count of 3000 cells or above? true

Item O=C1c2cccc3c(O)ccc(c23)C(=O)N1Cc1ccccc1 with cell count of 3000 cells or above? false

Item CS(=O)(=O)ON=C1CCN(S(=O)(=O)c2ccccc2)CC1 with cell count of 3000 cells or above? true

Item Cc1oc(C)c2c(=O)ccc3c(c12)OC(N)=C(C#N)C3c1ccc(F)cc1 (stereo not given) with cell count of 3000 cells or above? false

Item Cc1cc(/C=C2/C(=O)N(C)C(=S)N2C)ccc1N1CCCC1 with cell count of 3000 cells or above? false

Item O=C(/C=C/c1ccc2ccccc2n1)c1cc(Br)ccc1O with cell count of 3000 cells or above? false

Item COCCCNc1c2c3c(cccc3[nH]c1=O)C(=O)c1ccccc1-2 with cell count of 3000 cells or above? false

Item Cc1[nH]c2ccccc2c1/C=N/Nc1ccc([N+](=O)[O-])cc1 with cell count of 3000 cells or above? false

Item CCOC(=O)CC1C(=O)NCCN1c1nc2c(C)cccn2c(=O)c1/C=C1\SC(=S)N(C(C)CC)C1=O (stereo not given) with cell count of 3000 cells or above? true
